Here the recorded IC50 is given for each entry.
- Tested on: 873145-292-R-J1-PDC complex spheroid viability;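 further: spheroids exposed to compounds for 7 days before viability readout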
- test-method-notes: Anticancer human tumor 873145-292-R-J1-PDC patient-derived renal clear cell carcinoma cell line growth inhibition [POLQ]
- experimental-context: curve of first compound; second compound 10 µM

compound	subject-of-test	IC50
O=c1[nH]cc(F)c(=O)[nH]1 + COC1C(OC(N)=O)C(O)C(Oc2ccc3c(O)c(NC(=O)c4ccc(O)c(CC=C(C)C)c4)c(=O)oc3c2C)OC1(C)C	873145-292-R-J1-PDC complex spheroid viability	> 10 µM
COc1cccc(OCCCN)c1-c1cc(Nc2cnc(C#N)cn2)n[nH]1 + COC1C(OC(N)=O)C(O)C(Oc2ccc3c(O)c(NC(=O)c4ccc(O)c(CC=C(C)C)c4)c(=O)oc3c2C)OC1(C)C	873145-292-R-J1-PDC complex spheroid viability	> 1 µM
Nc1ccn(C2OC(CO)C(O)C2(F)F)c(=O)n1 (centres undefined) + COC1C(OC(N)=O)C(O)C(Oc2ccc3c(O)c(NC(=O)c4ccc(O)c(CC=C(C)C)c4)c(=O)oc3c2C)OC1(C)C	873145-292-R-J1-PDC complex spheroid viability	> 10 µM
CC1COCCN1c1cc(-c2ccnn2C)c2ccnc(-c3ccn[nH]3)c2n1 (centres undefined) + COC1C(OC(N)=O)C(O)C(Oc2ccc3c(O)c(NC(=O)c4ccc(O)c(CC=C(C)C)c4)c(=O)oc3c2C)OC1(C)C	873145-292-R-J1-PDC complex spheroid viability	0.948 µM
CCc1cc2c(N3CCc4c(cc(Cn5ccnc5)cc4-c4cn(C)nc4C(F)(F)F)C3=O)cc(C)nc2c(OC)n1 + COC1C(OC(N)=O)C(O)C(Oc2ccc3c(O)c(NC(=O)c4ccc(O)c(CC=C(C)C)c4)c(=O)oc3c2C)OC1(C)C	873145-292-R-J1-PDC complex spheroid viability	> 10 µM
O=C(Nc1ccc(O)c(NS(=O)(=O)c2ccc(F)cc2)c1)c1ccc(-c2ccccc2)cc1 + COC1C(OC(N)=O)C(O)C(Oc2ccc3c(O)c(NC(=O)c4ccc(O)c(CC=C(C)C)c4)c(=O)oc3c2C)OC1(C)C	873145-292-R-J1-PDC complex spheroid viability	> 10 µM
CNCc1ccc(-c2[nH]c3cc(F)cc4c3c2CCNC4=O)cc1 + Nc1ccc(C#CCN(C(=O)Cc2ncc(C(F)(F)F)cc2C(F)(F)F)c2ccc(F)cc2)nn1	873145-292-R-J1-PDC complex spheroid viability	> 10 µM
Cn1ncnc1[C@H]1c2n[nH]c(=O)c3cc(F)cc(c23)N[C@@H]1c1ccc(F)cc1 + Cc1cccc(N(C)C(=O)C2C(O)CCN2c2nc(C)cc(C(F)(F)F)c2C#N)c1	873145-292-R-J1-PDC complex spheroid viability	> 0.1 µM
Cn1ncnc1[C@H]1c2n[nH]c(=O)c3cc(F)cc(c23)N[C@@H]1c1ccc(F)cc1 + Nc1ccc(C#CCN(C(=O)Cc2ncc(C(F)(F)F)cc2C(F)(F)F)c2ccc(F)cc2)nn1	873145-292-R-J1-PDC complex spheroid viability	> 0.1 µM
O=c1[nH]cc(F)c(=O)[nH]1 + Nc1ccc(C#CCN(C(=O)Cc2ncc(C(F)(F)F)cc2C(F)(F)F)c2ccc(F)cc2)nn1	873145-292-R-J1-PDC complex spheroid viability	> 10 µM
O=C(c1cc(Cc2n[nH]c(=O)c3ccccc23)ccc1F)N1CCN(C(=O)C2CC2)CC1 + Nc1ccc(C#CCN(C(=O)Cc2ncc(C(F)(F)F)cc2C(F)(F)F)c2ccc(F)cc2)nn1	873145-292-R-J1-PDC complex spheroid viability	> 10 µM
CC[C@@]1(O)C(=O)OCc2c1cc1n(c2=O)Cc2cc3c(CN(C)C)c(O)ccc3nc2-1 + Nc1ccc(C#CCN(C(=O)Cc2ncc(C(F)(F)F)cc2C(F)(F)F)c2ccc(F)cc2)nn1	873145-292-R-J1-PDC complex spheroid viability	> 0.1 µM
CCc1cc2c(N3CCc4c(cc(Cn5ccnc5)cc4-c4cn(C)nc4C(F)(F)F)C3=O)ccnc2c(OC)n1 + Nc1ccc(C#CCN(C(=O)Cc2ncc(C(F)(F)F)cc2C(F)(F)F)c2ccc(F)cc2)nn1	873145-292-R-J1-PDC complex spheroid viability	> 10 µM
CC[C@@]1(O)C(=O)OCc2c1cc1n(c2=O)Cc2cc3c(CN(C)C)c(O)ccc3nc2-1 + COC1C(OC(N)=O)C(O)C(Oc2ccc3c(O)c(NC(=O)c4ccc(O)c(CC=C(C)C)c4)c(=O)oc3c2C)OC1(C)C	873145-292-R-J1-PDC complex spheroid viability	> 0.1 µM
CC1COCCN1c1cc(C2(O)CC3CCC(C2)O3)c2cnn(-c3ccn[nH]3)c2n1 (centres undefined) + COC1C(OC(N)=O)C(O)C(Oc2ccc3c(O)c(NC(=O)c4ccc(O)c(CC=C(C)C)c4)c(=O)oc3c2C)OC1(C)C	873145-292-R-J1-PDC complex spheroid viability	0.691 µM
CCc1cc2c(N3CCc4c(cc(Cn5ccnc5)cc4-c4cn(C)nc4C(F)(F)F)C3=O)cc(C)nc2c(OC)n1 + Cc1cccc(N(C)C(=O)C2C(O)CCN2c2nc(C)cc(C(F)(F)F)c2C#N)c1	873145-292-R-J1-PDC complex spheroid viability	> 10 µM
C#Cc1c(F)ccc2cc(O)cc(-c3ncc4c(N5CC6CCC(C5)N6)nc(OCC56CCCN5CC(F)C6)nc4c3F)c12 (centres undefined) + COC1C(OC(N)=O)C(O)C(Oc2ccc3c(O)c(NC(=O)c4ccc(O)c(CC=C(C)C)c4)c(=O)oc3c2C)OC1(C)C	873145-292-R-J1-PDC complex spheroid viability	> 10 µM
CC(=O)O[C@H]1C(=O)[C@@]2(C)[C@H]([C@H](OC(=O)c3ccccc3)[C@]3(O)C[C@H](OC(=O)[C@H](O)[C@@H](NC(=O)c4ccccc4)c4ccccc4)C(C)=C1C3(C)C)[C@]1(OC(C)=O)CO[C@@H]1C[C@@H]2O + COC1C(OC(N)=O)C(O)C(Oc2ccc3c(O)c(NC(=O)c4ccc(O)c(CC=C(C)C)c4)c(=O)oc3c2C)OC1(C)C	873145-292-R-J1-PDC complex spheroid viability	> 3 µM
CCc1cc2c(N3CCc4c(cc(Cn5ccnc5)cc4-c4cn(C)nc4C(F)(F)F)C3=O)cc(C)nc2c(OC)n1 + Nc1ccc(C#CCN(C(=O)Cc2ncc(C(F)(F)F)cc2C(F)(F)F)c2ccc(F)cc2)nn1	873145-292-R-J1-PDC complex spheroid viability	> 10 µM

Origin of the recorded values: PubChem BioAssay AID1963834
